// data source = ChEMBL document CHEMBL4346715

System: Escherichia coli
Experiment: Antibacterial activity against Escherichia coli
Assay type: functional
Parameter: MIC. Scope: all listed entries.

Take a look at these entries with their results.
# value of MIC, Escherichia coli, item Cc1nn(-c2ccccc2)c(-n2cncn2)c1-c1cc(-c2ccc(-c3cccs3)cc2)nc2nc3ccccc3n12 = 62.5 to 250 µg/mL

# value of MIC, Escherichia coli, item COc1ccc(-c2cc(-c3c(C)nn(-c4ccccc4)c3-n3cncn3)n3c(n2)nc2ccccc23)cc1 = 62.5 to 250 µg/mL

More entries:
# value of MIC, Escherichia coli, item CC/C=N/n1c(S)nnc1-c1ccncc1 = 10.2 to 162 µg/mL

# value of MIC, Escherichia coli, item Sc1nnc(-c2ccncc2)n1/N=C/c1ccc(Br)cc1 = 10.2 to 162 µg/mL

# value of MIC, Escherichia coli, item COC1=CC(=O)C[C@@H](C)[C@]12Oc1c(Cl)c(OC)cc(OC)c1C2=O = 100 to 500 µg/mL

# value of MIC, Escherichia coli, item Cc1ccc(/C=N/n2c(S)nnc2-c2ccncc2)cc1 = 10.2 to 162 µg/mL

# value of MIC, Escherichia coli, item COc1ccc(/C=N/n2c(S)nnc2-c2ccncc2)cc1 = 10.2 to 162 µg/mL

# value of MIC, Escherichia coli, item Cc1ccc(-c2cc(-c3c(C)nn(-c4ccccc4)c3-n3cncn3)n3c(n2)nc2ccccc23)cc1 = 62.5 to 250 µg/mL

# value of MIC, Escherichia coli, item CCC/C=N/n1c(S)nnc1-c1ccncc1 = 10.2 to 162 µg/mL

# value of MIC, Escherichia coli, item Sc1nnc(-c2ccncc2)n1/N=C/c1ccccc1 = 10.2 to 162 µg/mL

# value of MIC, Escherichia coli, item Cc1nn(-c2ccccc2)c(-n2cncn2)c1-c1cc(-c2ccc(F)cc2)nc2nc3ccccc3n12 = 62.5 to 125 µg/mL

# value of MIC, Escherichia coli, item Cc1nn(-c2ccccc2)c(-n2cncn2)c1-c1cc(-c2ccc(O)cc2)nc2nc3ccccc3n12 = 62.5 to 250 µg/mL

# value of MIC, Escherichia coli, item CC1(C)S[C@@H]2[C@H](NC(=O)[C@H](N)c3ccccc3)C(=O)N2[C@H]1C(=O)O = 100 to 250 µg/mL

# value of MIC, Escherichia coli, item O=[N+]([O-])c1ccc(/C=N/n2c(S)nnc2-c2ccncc2)cc1 = 10.2 to 162 µg/mL

# value of MIC, Escherichia coli, item Sc1nnc(-c2ccncc2)n1/N=C/c1ccc(Cl)cc1 = 10.2 to 162 µg/mL

----------
Parameter: inhibition zone (IZ). Scope: all listed entries.
Tested on: Escherichia coli
Assay: Antibacterial activity against Escherichia coli assessed as zone of inhibition
Assay type: functional

Take a look at these entries with their results.
The compound listed as CN(C)[C@@H]1C(O)=C(C(N)=O)C(=O)[C@@]2(O)C(O)=C3C(=O)c4c(O)cccc4[C@@](C)(O)[C@H]3C[C@@H]12 shows inhibition zone (IZ) equal to 14 - 17 mm

The compound listed as S=c1[nH]nc(-c2ccc(Cl)cc2)n1-n1c(-c2ccc(Br)cc2)nc(-c2ccccc2)c1-c1ccccc1 shows inhibition zone (IZ) equal to 10 - 18 mm

The compound listed as Fc1ccc(-c2nc(-c3ccccc3)c(-c3ccccc3)n2-n2c(-c3ccc(Cl)cc3)n[nH]c2=S)cc1 shows inhibition zone (IZ) equal to 10 - 18 mm

Now, please, on to the next compound.
The compound listed as N#Cc1ccc(-c2nc(-c3ccccc3)c(-c3ccccc3)n2-n2c(-c3ccc(Cl)cc3)n[nH]c2=S)cc1 shows inhibition zone (IZ) equal to 10 - 18 mm

----------
Parameter: MIC. Scope: all listed entries.
System: Pseudomonas aeruginosa
Test: Antibacterial activity against Pseudomonas aeruginosa ATCC 27853 after 24 hrs by microdilution method
Assay type: functional
Conditions: ATCC 27853, 24 h

The molecule listed as CCCCCCCCCCn1nnc(-c2n[nH]c(=S)n2N)c1-c1n[nH]c(=S)n1N shows MIC equal to 1 to 128 µg/mL

The molecule listed as OC(Cn1cncn1)(Cn1cncn1)c1ccc(F)cc1F shows MIC equal to 4 µg/mL

The molecule listed as CCCCCCCCCCCCCCn1nnc(-c2n[nH]c(=S)n2-c2ccccc2)c1-c1n[nH]c(=S)n1-c1ccccc1 shows MIC equal to 1 to 128 µg/mL

The molecule listed as CCCCCCCCCCCCn1nnc(-c2n[nH]c(=S)n2N)c1-c1n[nH]c(=S)n1N shows MIC equal to 1 to 128 µg/mL

Now, please, on to the next molecule.
The molecule listed as O=C(O)c1cn(C2CC2)c2cc(N3CCNCC3)c(F)cc2c1=O shows MIC equal to 1 to 8 µg/mL

----------
System: Enterococcus faecalis
Test: Antibacterial activity against Enterococcus faecalis ATCC 29212 after 24 hrs by microdilution method
Type: functional
Conditions: ATCC 29212, 24 h
Experimental readout: MIC

The compound listed as CCCCCCCCCCn1nnc(-c2n[nH]c(=S)n2N)c1-c1n[nH]c(=S)n1N shows MIC equal to 1 to 128 mg/L

More entries:
The compound listed as CCCCCCCCCCCCCCCCn1nnc(-c2n[nH]c(=S)n2N)c1-c1n[nH]c(=S)n1N shows MIC equal to 1 to 128 mg/L

The compound listed as CCCCCCCCCCCCCCn1nnc(-c2n[nH]c(=S)n2N)c1-c1n[nH]c(=S)n1N shows MIC equal to 1 to 16 mg/L

The compound listed as CCCCCCCCCCCCn1nnc(-c2n[nH]c(=S)n2-c2ccccc2)c1-c1n[nH]c(=S)n1-c1ccccc1 shows MIC equal to 1 to 128 mg/L

The compound listed as CCCCCCCCCCCCCCCCn1nnc(-c2n[nH]c(=S)n2-c2ccccc2)c1-c1n[nH]c(=S)n1-c1ccccc1 shows MIC equal to 1 to 128 mg/L

The compound listed as CCCCCCCCCCn1nnc(-c2n[nH]c(=S)n2-c2ccccc2)c1-c1n[nH]c(=S)n1-c1ccccc1 shows MIC equal to 1 to 128 mg/L

----------
System: Bacillus anthracis
Assay: Antibacterial activity against Bacillus anthracis incubated for 18 hrs post 30 mins pre-diffusion by disk diffusion method
Type: functional
Experimental readout: MIC

Take a look at these entries with their results.
The compound listed as CO[C@H]1/C=C/O[C@@]2(C)Oc3c(C)c(O)c4c(O)c(c(/C=N/N5CCN(C)CC5)c(O)c4c3C2=O)NC(=O)/C(C)=C\C=C\[C@H](C)[C@H](O)[C@@H](C)[C@@H](O)[C@@H](C)[C@H](OC(C)=O)[C@@H]1C shows MIC equal to 31 to 1000 µg/mL

The compound listed as CN(C)[C@@H]1C(O)=C(C(N)=O)C(=O)[C@@]2(O)C(O)=C3C(=O)c4c(O)cccc4[C@@](C)(O)[C@H]3C[C@@H]12 shows MIC equal to 31 to 1000 µg/mL

The compound listed as FC(F)(F)c1cc(-c2nnc(Sc3cc(Cl)nc(Sc4ccccc4)n3)[nH]2)cc(C(F)(F)F)c1 shows MIC equal to 0.75 to 1.8 µg/mL

Now, please, on to the next compound.
The compound listed as CN[C@H](CC(C)C)C(=O)N[C@H]1C(=O)N[C@@H](CC(N)=O)C(=O)N[C@H]2C(=O)N[C@H]3C(=O)N[C@H](C(=O)N[C@H](C(=O)O)c4cc(O)cc(O)c4-c4cc3ccc4O)[C@H](O)c3ccc(c(Cl)c3)Oc3cc2cc(c3O[C@@H]2O[C@H](CO)[C@@H](O)[C@H](O)[C@H]2O[C@H]2C[C@](C)(N)[C@H](O)[C@H](C)O2)Oc2ccc(cc2Cl)[C@H]1O shows MIC equal to 8 µg/mL

----------
Test system: Pseudomonas aeruginosa
Assay: Antibacterial activity against Pseudomonas aeruginosa ATCC 27853 after 24 hrs by microdilution method
Assay type: functional
Conditions: ATCC 27853, 24 h
Experimental readout: MIC

The compound listed as CCCCCCCCCCCCCCCCn1nnc(-c2n[nH]c(=S)n2-c2ccccc2)c1-c1n[nH]c(=S)n1-c1ccccc1 shows MIC equal to 1 to 128 µg/mL

The compound listed as CCCCCCCCCCn1nnc(-c2n[nH]c(=S)n2-c2ccccc2)c1-c1n[nH]c(=S)n1-c1ccccc1 shows MIC equal to 1 to 128 µg/mL

The compound listed as CCCCCCCCCCCCn1nnc(-c2n[nH]c(=S)n2-c2ccccc2)c1-c1n[nH]c(=S)n1-c1ccccc1 shows MIC equal to 1 to 128 µg/mL

The compound listed as CCCCCCCCCCCCCCCCn1nnc(-c2n[nH]c(=S)n2N)c1-c1n[nH]c(=S)n1N shows MIC equal to 1 to 128 µg/mL

More entries:
The compound listed as CCCCCCCCCCCCCCn1nnc(-c2n[nH]c(=S)n2N)c1-c1n[nH]c(=S)n1N shows MIC equal to 1 to 16 µg/mL
